Every entry's value here was drawn from paper PMC2688778.

measured.on: T1, RecE564 E729A (Escherichia coli K12, UniProt P15032 564-866, E729A)
T1 sequence: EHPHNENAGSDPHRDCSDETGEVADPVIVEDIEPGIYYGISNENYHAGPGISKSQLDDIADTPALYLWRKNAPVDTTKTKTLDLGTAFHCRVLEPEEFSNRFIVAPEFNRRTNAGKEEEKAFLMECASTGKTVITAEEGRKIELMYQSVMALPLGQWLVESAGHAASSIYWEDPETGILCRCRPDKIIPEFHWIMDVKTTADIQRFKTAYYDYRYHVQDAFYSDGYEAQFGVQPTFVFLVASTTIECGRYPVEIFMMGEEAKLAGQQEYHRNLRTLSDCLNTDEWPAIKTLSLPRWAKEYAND
experiment.summary: fluorescence anisotropy
measured.property: Kd (nM)
Numeric answer only, unit nM assumed.

Look up Kd: F25 (dsDNA) DNA 1: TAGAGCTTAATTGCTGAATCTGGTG DNA 2: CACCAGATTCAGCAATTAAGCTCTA
57
